Value source: ChEMBL document CHEMBL1961873

# System under test: Protein-tyrosine kinase 6 (Homo sapiens) (UniProt Q13882)
# Sequence (Q13882 whole entry, looked up): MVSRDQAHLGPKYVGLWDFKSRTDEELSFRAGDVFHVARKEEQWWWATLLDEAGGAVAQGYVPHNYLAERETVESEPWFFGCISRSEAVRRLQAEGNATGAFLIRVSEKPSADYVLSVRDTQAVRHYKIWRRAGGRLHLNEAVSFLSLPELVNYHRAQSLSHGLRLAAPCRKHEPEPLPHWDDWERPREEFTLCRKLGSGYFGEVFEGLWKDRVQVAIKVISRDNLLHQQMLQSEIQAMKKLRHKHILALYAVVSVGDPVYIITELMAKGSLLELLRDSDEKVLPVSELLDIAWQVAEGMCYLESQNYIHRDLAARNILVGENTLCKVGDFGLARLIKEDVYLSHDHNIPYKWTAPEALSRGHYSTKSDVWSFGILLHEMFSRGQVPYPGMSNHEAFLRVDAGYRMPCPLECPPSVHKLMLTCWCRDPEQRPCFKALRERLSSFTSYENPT
# Details: at 1 µM
# Description: GSK_PKIS: BRK mean inhibition at 1 uM [Nanosyn]
# inhibition annotations
// return numeric value only (unit: %, not printed)

Cc1nnc(-c2cccc(-c3ccc(C(=O)NCC4CC4)cc3)c2)o1
7.36

inhibition reported for this compound CNC(=O)c1cncc(/C=C/c2ccccc2C)c1 : 14.5

Briefly, inhibition measured for CN(c1ccc(NC(=O)NCCN2CCOCC2)cc1)c1ccnc(Nc2ccc(CS(C)(=O)=O)cc2)n1 : 8.9

Recorded inhibition (compound CC(C)c1ccc(-c2cc(-c3c[nH]nc3-c3ccccn3)ccn2)cc1 ): 0.14

In plain terms, O=C(Nc1n[nH]c2nnc(-c3cccnc3)cc12)C1CC1 has a documented inhibition of -0.57

----------
# System under test: Glycogen synthase kinase-3 alpha (Homo sapiens) (UniProt P49840);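 also: values are mean inhibition of GSK3A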
# Sequence (P49840 2-483 limits assumed): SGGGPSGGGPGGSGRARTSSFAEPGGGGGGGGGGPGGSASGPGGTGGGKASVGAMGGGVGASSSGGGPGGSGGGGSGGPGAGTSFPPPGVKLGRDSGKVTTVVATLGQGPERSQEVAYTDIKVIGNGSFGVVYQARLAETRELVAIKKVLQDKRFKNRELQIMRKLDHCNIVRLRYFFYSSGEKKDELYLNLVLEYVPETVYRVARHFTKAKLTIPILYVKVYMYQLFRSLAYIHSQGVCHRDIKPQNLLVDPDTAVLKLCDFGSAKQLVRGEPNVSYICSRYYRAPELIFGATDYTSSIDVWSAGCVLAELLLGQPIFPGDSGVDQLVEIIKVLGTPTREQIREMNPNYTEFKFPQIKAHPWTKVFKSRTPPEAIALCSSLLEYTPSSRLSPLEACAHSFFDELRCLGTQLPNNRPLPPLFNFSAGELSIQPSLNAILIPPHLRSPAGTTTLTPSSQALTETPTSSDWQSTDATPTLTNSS
# Details: at 0.1 µM
Readout kind: inhibition (%)
Supply the numeric figure in %, leaving out any unit text.

NS(=O)(=O)c1cccc(N/C=C2\C(=O)Nc3ccccc32)c1
4.32
CCN1CCC(C(=O)Nc2n[nH]c3nnc(-c4cccc(F)c4F)cc23)CC1
85.3
CCOc1ccc2c(-c3ccnc(Nc4cc(OC)cc(C(F)(F)F)c4)n3)cnn2n1
9.42
CC1=C(C(=O)Nc2ccc3[nH]nc(C)c3c2)C(c2ccc(C(F)(F)F)cc2)CC(=O)N1 (stereo not drawn)
6.5
N#Cc1cccc(Nc2ncc(-c3ccccc3)o2)c1
5.76
Cc1cc(O)cc(C)c1/C=C/c1cncc(C(N)=O)c1
1.54
O=C(Nc1n[nH]c2nnc(-c3cccnc3)cc12)C1CC1
80.5
COc1cc(N2CCN(C(C)C)CC2)ccc1Nc1nc(Nc2cccc(F)c2C(=O)O)c2cc[nH]c2n1
5

// inhibition value for COC(=O)Nc1nc2ccc(Oc3ccc(NC(=O)Nc4cc(C(F)(F)F)ccc4F)cc3)cc2s1 : 0.71

The recorded inhibition for c1ccc(-c2n[nH]cc2-c2ccnc(-c3ccc(OCCn4ccnc4)cc3)c2)nc1 is 1.15

Input COc1ccc2ncn(-c3cc(O[C@H](C)c4ccccc4C(F)(F)F)c(C(N)=O)s3)c2c1 . Output inhibition: -0.19

Kindly note the recorded inhibition for Cc1cc(O)cc(C)c1/C=C/c1cncc(C(=O)OC(C)(C)C)c1 , which is 4.43

Just so you know, measured inhibition for CC1=C(C(=O)Nc2ccc3[nH]ncc3c2)C(c2ccc(F)cc2)N=C(c2ccc(C(F)(F)F)nc2)N1 (stereo not drawn) came out at 1.54

Data point: Cc1nnc(-c2cccc(-c3ccc(C(=O)NCC4CC4)cc3)c2)o1 ; inhibition = 4.33

The compound OCCCNc1nccc(-c2c(-c3ccc(F)cc3)nn3cc(C(F)(F)F)ccc23)n1 showed inhibition equal to 7.04

The reported value for c1cnn2ncc(-c3ccnc(NCCCN4CCOCC4)n3)c2c1 in terms of inhibition is 2.46

inhibition for NC(=O)c1ccc2c(-c3ccnc(NCCCO)n3)c(-c3ccc(F)cc3)nn2c1 is 3.74

Query CS(=O)(=O)CCNCc1ccoc1-c1ccc2ncnc(Nc3ccc(OCc4ccccc4)cc3)c2c1 yields inhibition of 4.65

inhibition reading for COc1cc(N2CCN(C(C)C)CC2)ccc1Nc1nc(Nc2cccc3ncccc23)c2cc[nH]c2n1 : 0.06

Entry FC(F)(F)CNc1nccc(-c2cnn3ncccc23)n1 — recorded inhibition = 3.64

----------
# System under test: Fibroblast growth factor receptor 1 (Homo sapiens) (UniProt P11362);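 also: values are reported as mean percent inhibition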
# Sequence (P11362 22-822 limits assumed): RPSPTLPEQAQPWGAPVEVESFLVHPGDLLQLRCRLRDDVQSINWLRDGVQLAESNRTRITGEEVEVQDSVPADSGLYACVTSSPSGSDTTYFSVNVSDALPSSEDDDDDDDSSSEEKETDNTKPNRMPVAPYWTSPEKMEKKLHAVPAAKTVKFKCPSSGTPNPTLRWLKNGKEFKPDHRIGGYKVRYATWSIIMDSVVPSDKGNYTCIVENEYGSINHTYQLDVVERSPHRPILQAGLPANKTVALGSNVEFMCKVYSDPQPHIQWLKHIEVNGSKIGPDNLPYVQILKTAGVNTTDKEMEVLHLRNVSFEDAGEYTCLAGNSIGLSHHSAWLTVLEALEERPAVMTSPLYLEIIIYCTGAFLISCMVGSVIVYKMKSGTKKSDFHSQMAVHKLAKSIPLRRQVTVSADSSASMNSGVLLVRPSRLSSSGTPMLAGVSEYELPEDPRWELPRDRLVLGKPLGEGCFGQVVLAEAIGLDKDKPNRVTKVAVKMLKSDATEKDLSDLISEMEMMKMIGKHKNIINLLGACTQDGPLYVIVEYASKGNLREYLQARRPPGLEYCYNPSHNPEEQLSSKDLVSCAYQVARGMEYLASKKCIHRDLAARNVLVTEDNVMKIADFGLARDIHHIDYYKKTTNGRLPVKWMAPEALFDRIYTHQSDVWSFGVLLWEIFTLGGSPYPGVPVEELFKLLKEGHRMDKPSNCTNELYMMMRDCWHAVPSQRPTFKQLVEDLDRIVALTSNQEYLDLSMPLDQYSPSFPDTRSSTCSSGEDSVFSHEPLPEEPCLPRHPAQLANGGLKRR
# Details: at 0.1 µM
Readout kind: inhibition (%)
Report as a plain number; the unit % is understood.

Solved cases below.
COc1ccc(Nc2ncc(-c3ccccc3)o2)cc1OC
-3.4
CCCNc1cccc(-n2ncc3c(N/N=C/c4ccncc4)ncnc32)c1
0.48
COc1cc2c(cc1Nc1nc(Nc3cccc(F)c3C(N)=O)c3cc[nH]c3n1)N(C(=O)CN1CCN(C(C)C)CC1)CC2
11.4
COc1cc(N2CCN(C(C)C)CC2)ccc1Nc1nc(Nc2cccc3ncccc23)c2cc[nH]c2n1
-4.53

Short answer for Cn1c(-c2nonc2N)nc2cnccc21 : inhibition was 4.78

The compound identified as CC1=C(C(=O)Nc2ccc3[nH]ncc3c2)C(c2ccc(F)cc2)N=C(c2ccc(C(F)(F)F)nc2)N1 (stereo not given) registered its inhibition at 6.73

Data point: N#Cc1cccc(Nc2ncc(-c3ccccc3)o2)c1 ; inhibition = -4.35
